test: qHTS RealTime-Glo MT Cell Viability Assay in HepG2 cells - 0 hour (AID 1224889); conditions: RealTime-Glo luminescence; series mostly up to 76.8 µM; further: nearly all actives have a fitted effect of over 50% in size
Results filed as inconclusive are left out. The source made the active and inactive calls. The call rests on the fitted dose curve; in most records, active means well fitted cell-killing curve with a large enough effect in the repeat runs; inconclusive means weak or mixed curves, or effect the other way; inactive means flat fitted curve, though single readings scatter.
observed property: outcome

// worked examples, outcome included
CCCCc1c(C)nc(NCC)[nH]c1=O ... inactive
N#Cc1ccncc1 ... inactive
CC(=O)C(Cl)Cl ... inactive
CCOP(=O)(N=C1SCCS1)OCC ... inactive
COc1cc(OC)nc(NC(=O)NS(=O)(=O)c2ncccc2C(=O)N(C)C)n1 ... inactive
CC(=O)[C@H]1CC[C@H]2[C@@H]3CC[C@H]4C[C@H](O)CC[C@]4(C)[C@H]3C(=O)C[C@]12C ... inactive
OCCBr ... inactive

Here's the next entry for you.
Requested field: outcome. Item: BrCCCCCCBr
inactive

Taken from PubChem BioAssay (Tox21).
